Assay: Antiproliferative activity against human HEK293T cells assessed as growth inhibition at 5 uM after 72 hrs by luminescent cell viability assay
Format: cell-based, HEK-293T
Details: read-out: GI
Categories are assigned from the measured inhibition at 72 h, 5 µM using these intervals: bin 0 (below 8%), bin 1 (8% to below 30%), bin 2 (30% or more)

Given COc1cc(O)c(C(=O)OCC(C)c2ccccc2)c(/C=C/CN2C(=O)C=CC2=O)c1 (stereo not given) , name the class its inhibition at 72 h, 5 µM places it in. bin 0

Note: place this molecule into its band. Item: C=CS(=O)(=O)NC/C=C/c1cc(OC)cc(O)c1C(=O)OC(C)C bin 0

For the record C=CS(=O)(=O)NCCCc1cc(OCCN2CCOCC2)cc(O)c1C(=O)OC(C)C , report the class its inhibition at 72 h, 5 µM corresponds to. bin 1

Category of COc1cc(O)c(C(=O)OCc2ccc(Br)cc2)c(/C=C/CN2C(=O)C=CC2=O)c1 , please. bin 1

// return the class label for C=CS(=O)(=O)NC/C=C/c1cc(OC)cc(O)c1C(=O)OCc1ccc(F)cc1 bin 0

Classify this molecule: COc1cc(O)c(C(=O)OCc2ccc(F)cc2)c(/C=C/CN2C(=O)C=CC2=O)c1 bin 2

Assign a category based on measured inhibition at 72 h, 5 µM for COc1cc(O)c(C(=O)OC(C)C)c(CCCN2C(=O)C=CC2=O)c1 and give only the class name. bin 1

# bin label for C=CC(=O)NC/C=C/c1cc(OCCc2ccc(F)cc2)cc(O)c1C(=O)OC(C)C bin 1

Band of COc1cc(/C=C/CN2C(=O)C=CC2=O)c(C(=O)OC(C)C)c(OC(C)=O)c1 ? bin 2

====

Experiment: Antiproliferative activity against human HEK293T cells assessed as growth inhibition at 5 uM after 72 hrs by luminescent cell viability assay
Assay type: cell-based, HEK-293T
Details: read-out: GI
ENDPOINT LABEL: inhibition at 72 h, 5 µM
Be sure to follow the number with its unit.

The compound C=CS(=O)(=O)NC/C=C/c1cc(OC)cc(O)c1C(=O)OCc1ccc(Br)cc1 showed inhibition at 72 h, 5 µM equal to 0%

Recorded result, CC(C)OC(=O)c1c(O)cc(OCCN2CCOCC2)cc1CCCN1C(=O)C=CC1=O , inhibition at 72 h, 5 µM: 13.3%

The compound COc1cc(O)c2c(c1)CCC[C@H](O)[C@H](O)C(=O)/C=C\C[C@H](C)OC2=O showed inhibition at 72 h, 5 µM equal to 74.6%

C=CS(=O)(=O)NC/C=C/c1cc(OC)cc(O)c1C(=O)OCC1CCCCC1 yielded inhibition at 72 h, 5 µM of 31.2%

// inhibition at 72 h, 5 µM value for CCN(CC)C/C=C/C(=O)NC/C=C/c1cc(OCCc2ccc(F)cc2)cc(O)c1C(=O)OC(C)C : 28.5%

// recorded inhibition at 72 h, 5 µM for CC(C)OC(=O)c1c(O)cc(OCCCN2CCOCC2)cc1/C=C/CN1C(=O)C=CC1=O : 38.8%

The recorded inhibition at 72 h, 5 µM for entry C=CC(=O)NC/C=C/c1cc(OCCCN2CCOCC2)cc(O)c1C(=O)OC(C)C equals 26.5%

response.value for COc1cc(O)c(C(=O)OCC2CCCCC2)c(/C=C/CN2C(=O)C=CC2=O)c1 (field: inhibition at 72 h, 5 µM) = 6.9%

In plain terms, C=CS(=O)(=O)NC/C=C/c1cc(OC)cc(O)c1C(=O)OCC(C)c1ccccc1 (centres undefined) has a documented inhibition at 72 h, 5 µM of 22.5%

====

Biological target: Receptor-type tyrosine-protein kinase FLT3 (Homo sapiens, UniProt P36888, ITD)
Experiment: Inhibition of recombinant FLT3 ITD mutant (unknown origin) by RBC kinase assay
ENDPOINT LABEL: IC50 (µM)
Reply numerically in µM, unit not repeated.

Field IC50 (entry COc1cc(O)c(C(=O)OC(C)C)c(/C=C/CN2C(=O)C=CC2=O)c1 ) reads 9.79

GET /value?item= C=CS(=O)(=O)NC/C=C/c1cc(OC)cc(O)c1C(=O)OC(C)C &field=IC50 returns 2.25

Input COc1cc(/C=C/CN2C(=O)C=CC2=O)c(C(=O)OC(C)C)c(OC(C)=O)c1 . Output IC50: 21.8

Field IC50 (entry COc1cc(O)c(C(=O)OC(C)C)c(CCCN2C(=O)C=CC2=O)c1 ) reads 13.2

Lookup result for C=CS(=O)(=O)NCCCc1cc(OCCN2CCOCC2)cc(O)c1C(=O)OC(C)C ; measured IC50: 4.23

====

Molecular target: Receptor-type tyrosine-protein kinase FLT3 (Homo sapiens, UniProt P36888, ITD)
Experiment: Inhibition of recombinant FLT3 ITD mutant (unknown origin) by RBC kinase assay
I'd be grateful if you could share measured IC50 for these entries.

The molecule listed as COc1cc(O)c(C(=O)OCc2ccc(F)cc2)c(/C=C/CN2C(=O)C=CC2=O)c1 shows IC50 equal to > 30 µM

The recorded IC50 for entry C/C=C/C(=O)NC/C=C/c1cc(OC)cc(O)c1C(=O)OC(C)C equals ≥ 30 µM

Consider C=CC(=O)NC/C=C/c1cc(OC)cc(O)c1C(=O)O[C@@H](C)C(C)C . Its measured IC50 is ≥ 30 µM

Measured IC50 of COc1cc(O)c(C(=O)OCC2CCCCC2)c(/C=C/CN2C(=O)C=CC2=O)c1 : > 30 µM

Given item C/C=C/C(=O)NC/C=C/c1cc(OCCc2ccc(F)cc2)cc(O)c1C(=O)OC(C)C , the value recorded as its IC50 is ≥ 30 µM

Reported IC50 ( C=CS(=O)(=O)NC/C=C/c1cc(OC)cc(O)c1C(=O)OCC1CCCCC1 ) = ≥ 30 µM

Entry COc1cc(O)c(C(=O)OCC(C)c2ccccc2)c(/C=C/CN2C(=O)C=CC2=O)c1 (stereo not drawn) ; IC50 = > 30 µM

// recorded IC50 for C=CC(=O)NC/C=C/c1cc(OC)cc(O)c1C(=O)OC(C)C : ≥ 30 µM

====

Target: Receptor-type tyrosine-protein kinase FLT3 (Homo sapiens, UniProt P36888, D835Y)
Experiment: Inhibition of recombinant FLT3 D835Y mutant (unknown origin) by TR-FRET assay
Consider the following molecules; for each one, report its IC50.

Per the record, C=CS(=O)(=O)NC/C=C/c1cc(OC)cc(O)c1C(=O)OCc1ccc(F)cc1 has IC50 of ≥ 30 µM

Reported IC50 ( C=CS(=O)(=O)NC/C=C/c1cc(OC)cc(O)c1C(=O)OCc1ccc(Br)cc1 ) = ≥ 30 µM

The reported value for C=CS(=O)(=O)NC/C=C/c1cc(OC)cc(O)c1C(=O)OCC(C)c1ccccc1 (stereo unspecified) in terms of IC50 is ≥ 30 µM

The value of IC50 measured for the molecule CCN(CC)C/C=C/C(=O)NC/C=C/c1cc(OC)cc(O)c1C(=O)O[C@@H](C)C(C)C turned out to be ≥ 30 µM

IC50 in this record for C/C=C/C(=O)NC/C=C/c1cc(OC)cc(O)c1C(=O)OC(C)C : ≥ 30 µM

Summary for this molecule, C=CC(=O)NC/C=C/c1cc(OC)cc(O)c1C(=O)OC(C)C : IC50 is ≥ 30 µM

Item: C=CC(=O)NC/C=C/c1cc(OC)cc(O)c1C(=O)O[C@@H](C)C(C)C | IC50: ≥ 30 µM

Reported IC50 of C=CC(=O)NC/C=C/c1cc(OCCc2ccc(F)cc2)cc(O)c1C(=O)OC(C)C : > 30 µM

Measured IC50 of C=CS(=O)(=O)NC/C=C/c1cc(OC)cc(O)c1C(=O)OCC1CCCCC1 : ≥ 30 µM

Briefly, IC50 measured for C/C=C/C(=O)NC/C=C/c1cc(OCCc2ccc(F)cc2)cc(O)c1C(=O)OC(C)C : ≥ 30 µM

What the record says about CCN(CC)C/C=C/C(=O)NC/C=C/c1cc(OCCc2ccc(F)cc2)cc(O)c1C(=O)OC(C)C : IC50 is > 30 µM

====

Target: Receptor-type tyrosine-protein kinase FLT3 (Homo sapiens)
Assay: Inhibition of recombinant FLT3 (unknown origin) by TR-FRET assay
pIC50: −log10 of the molar value.
ENDPOINT LABEL: pIC50

Query C/C=C/C(=O)NC/C=C/c1cc(OC)cc(O)c1C(=O)OC(C)C yields pIC50 of ≤ 4.52

Per the record, CCN(CC)C/C=C/C(=O)NC/C=C/c1cc(OC)cc(O)c1C(=O)OC(C)C has pIC50 of < 4.52

Notebook: C=CS(=O)(=O)NC/C=C/c1cc(OC)cc(O)c1C(=O)OCC(C)c1ccccc1 (centres undefined) , pIC50 read as ≤ 4.52

// field: pIC50; key: C=CS(=O)(=O)NCCCc1cc(OCCN2CCOCC2)cc(O)c1C(=O)OC(C)C ; value = < 4.52
